TARGET_DESC: SRC (Homo sapiens)
Sequence (P12931 whole entry): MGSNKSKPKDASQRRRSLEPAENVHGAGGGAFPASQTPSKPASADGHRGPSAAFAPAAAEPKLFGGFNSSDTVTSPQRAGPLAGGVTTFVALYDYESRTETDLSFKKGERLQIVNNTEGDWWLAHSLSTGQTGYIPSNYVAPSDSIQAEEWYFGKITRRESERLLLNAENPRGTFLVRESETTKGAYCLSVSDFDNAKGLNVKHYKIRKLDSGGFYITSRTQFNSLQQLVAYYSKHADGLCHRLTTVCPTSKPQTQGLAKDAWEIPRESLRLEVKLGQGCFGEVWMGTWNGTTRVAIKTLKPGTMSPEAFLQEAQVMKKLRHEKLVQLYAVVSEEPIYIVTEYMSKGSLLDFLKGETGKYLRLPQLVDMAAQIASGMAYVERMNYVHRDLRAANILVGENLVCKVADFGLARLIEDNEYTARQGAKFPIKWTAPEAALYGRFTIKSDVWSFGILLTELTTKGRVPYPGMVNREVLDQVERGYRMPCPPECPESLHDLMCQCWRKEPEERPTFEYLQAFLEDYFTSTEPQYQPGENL
ASSAY_NOTES: Inhibition of a panel of kinases, in vitro HotSpot kinase assay: SRC
Assay type: biochemical
CONDITION_NOTES: E compounds, Table 17
pIC50: −log10 of the molar value.
REPORTED_ENDPOINT: pIC50

// worked examples, pIC50 included
{"columns": ["RECORD_SMILES", "ENDPOINT_VALUE"],
 "data": [
  ["C[C@@H]1[C@H](NC(=O)c2ccc(-c3ncco3)cc2)CCCN1c1cnc(C(N)=O)c(Nc2cnn(C)c2)n1", "7.00 to 8.00"],
  ["C[C@@H]1[C@H](NC(=O)c2ccc(C3CC3)cc2)CCCN1c1cnc(C(N)=O)c(Nc2ccc(N3CCN(C4CCCC4)C[C@@H]3C)cc2)n1", "7.00 to 8.00"],
  ["C[C@@H]1[C@H](NC(=O)c2ccc(C3CC3)cc2)CCCN1c1cnc(C(N)=O)c(Nc2cnc(C3CCOCC3)nc2)n1", "6.00 to 7.00"]
]}

**Q:** Given the compound `C=CC(=O)N1CCC[C@@H](Nc2nnc(C(N)=O)c(Nc3ccc(C4(C)CCN(C5CC5)CC4)cc3)n2)[C@H]1C` , what is its reported pIC50?
**A:** ≥ 8.00

----------
TARGET_DESC: ITK (Homo sapiens)
Sequence (Q08881 whole entry): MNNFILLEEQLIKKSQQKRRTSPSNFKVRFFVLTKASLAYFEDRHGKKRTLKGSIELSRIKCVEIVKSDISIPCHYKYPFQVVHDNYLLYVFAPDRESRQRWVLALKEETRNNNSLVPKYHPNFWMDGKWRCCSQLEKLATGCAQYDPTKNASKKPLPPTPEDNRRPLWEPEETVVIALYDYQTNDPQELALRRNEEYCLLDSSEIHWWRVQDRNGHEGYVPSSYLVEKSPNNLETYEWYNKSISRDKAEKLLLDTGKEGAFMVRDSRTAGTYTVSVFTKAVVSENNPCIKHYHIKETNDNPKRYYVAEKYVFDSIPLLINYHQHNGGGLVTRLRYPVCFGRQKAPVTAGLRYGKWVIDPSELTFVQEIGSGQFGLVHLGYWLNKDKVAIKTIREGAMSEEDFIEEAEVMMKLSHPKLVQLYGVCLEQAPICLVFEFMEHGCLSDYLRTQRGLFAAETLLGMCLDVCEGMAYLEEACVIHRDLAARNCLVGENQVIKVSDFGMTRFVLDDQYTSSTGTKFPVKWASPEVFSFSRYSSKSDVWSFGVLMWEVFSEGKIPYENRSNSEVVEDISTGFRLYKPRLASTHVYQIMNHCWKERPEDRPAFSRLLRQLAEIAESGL
ASSAY_NOTES: Inhibition of a panel of kinases, in vitro HotSpot kinase assay: ITK
Format: biochemical
CONDITION_NOTES: D-compounds panel data; 1 μM ATP
REPORTED_ENDPOINT: IC50

{"columns": ["RECORD_SMILES", "TARGET_DESC", "ENDPOINT_VALUE"],
 "data": [
  ["CN1CCC(n2cc(Nc3nc(N4CCC[C@@H](n5ccc6cc(C7CC7)ccc6c5=O)C4)cnc3C(N)=O)cn2)CC1", "ITK (Homo sapiens)", "100 to 1000 nM"],
  ["C[C@@H]1[C@H](NC(=O)c2ccc3c(c2)OC(F)(F)O3)CCCN1c1cnc(C(N)=O)c(Nc2cnn(C)c2)n1", "ITK (Homo sapiens)", "100 to 1000 nM"]
]}

**Q:** For `C[C@@H]1[C@H](NC(=O)c2ccc(-c3ncccn3)cc2)CCCN1c1cnc(C(N)=O)c(Nc2cnn(C)c2)n1` , what is its reported IC50?
**A:** 100 to 1000 nM

**Q:** Param item: `C[C@@H]1[C@H](NC(=O)c2ccc(C3CC3)cc2)CCCN1c1cnc(C(N)=O)c(Nc2ccc(N3CCN(C)CC3)c(C(F)(F)F)c2)n1`
**A:** 1000 to 10000 nM

**Q:** // query: `C[C@@H]1[C@H](NC(=O)c2ccc(C3CC3)cc2)CCCN1c1cnc(C(N)=O)c(Nc2cnn(C3CCNCC3)c2)n1`
**A:** 10 to 100 nM

**Q:** Cool, now `C[C@@H]1[C@H](NC(=O)c2ccc(C(C)(C)O)cc2)CCCN1c1nnc(C(N)=O)c(Nc2cnn(C)c2)n1`
**A:** 10 to 100 nM

**Q:** Then what about the compound `C[C@@H]1[C@H](NC(=O)c2ccc(C(F)(F)F)cc2)CCCN1c1cnc(C(N)=O)c(Nc2ccc(N3CCN(C)CC3)cc2)n1` ?
**A:** 100 to 1000 nM
